- assay_system: Epidermal growth factor receptor (Homo sapiens, UniProt P00533)
- Sequence (P00533 whole entry): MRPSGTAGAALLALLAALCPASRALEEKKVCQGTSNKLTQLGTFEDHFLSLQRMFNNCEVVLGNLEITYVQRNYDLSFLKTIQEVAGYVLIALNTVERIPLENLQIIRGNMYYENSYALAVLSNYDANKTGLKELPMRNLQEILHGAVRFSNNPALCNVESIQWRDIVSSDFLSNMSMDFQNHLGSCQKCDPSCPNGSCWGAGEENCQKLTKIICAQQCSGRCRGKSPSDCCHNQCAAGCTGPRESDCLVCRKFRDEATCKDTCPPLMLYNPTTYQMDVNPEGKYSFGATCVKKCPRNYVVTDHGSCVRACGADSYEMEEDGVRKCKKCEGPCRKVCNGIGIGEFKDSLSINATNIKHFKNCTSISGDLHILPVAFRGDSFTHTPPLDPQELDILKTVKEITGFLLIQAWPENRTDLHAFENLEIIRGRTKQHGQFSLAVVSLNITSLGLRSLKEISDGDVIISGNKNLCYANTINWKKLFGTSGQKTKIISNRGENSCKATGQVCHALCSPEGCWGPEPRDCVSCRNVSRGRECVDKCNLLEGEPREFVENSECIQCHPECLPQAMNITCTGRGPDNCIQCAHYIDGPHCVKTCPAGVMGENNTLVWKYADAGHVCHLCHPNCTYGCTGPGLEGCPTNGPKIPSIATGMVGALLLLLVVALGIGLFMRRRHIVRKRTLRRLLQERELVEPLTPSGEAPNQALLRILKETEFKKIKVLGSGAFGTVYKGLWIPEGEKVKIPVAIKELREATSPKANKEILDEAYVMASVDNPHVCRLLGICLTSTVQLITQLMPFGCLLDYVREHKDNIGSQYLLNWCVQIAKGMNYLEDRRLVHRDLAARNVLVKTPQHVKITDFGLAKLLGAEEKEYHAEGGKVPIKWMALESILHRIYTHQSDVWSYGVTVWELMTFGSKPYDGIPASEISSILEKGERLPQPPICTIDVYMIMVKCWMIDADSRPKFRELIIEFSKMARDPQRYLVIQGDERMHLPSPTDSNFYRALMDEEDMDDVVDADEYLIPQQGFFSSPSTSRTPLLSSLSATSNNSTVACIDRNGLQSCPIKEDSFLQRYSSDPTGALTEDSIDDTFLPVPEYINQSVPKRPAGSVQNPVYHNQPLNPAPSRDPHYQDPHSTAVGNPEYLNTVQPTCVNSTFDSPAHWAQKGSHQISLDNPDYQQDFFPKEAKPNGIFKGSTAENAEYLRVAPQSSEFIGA
- assay_info: biochemical
endpoint_label: IC50

Consider the following illustrative entries.
query_smiles | assay_system | experimental_result
CCc1cccc(Nc2ncnc3ccc(NC(=S)NCc4ccccc4)cc23)c1 | Epidermal growth factor receptor (Homo sapiens, UniProt P00533) | > 150 nM
CC(C)c1ccc(Nc2ncnc3ccc(NC(=S)NCc4ccccc4)cc23)cc1 | Epidermal growth factor receptor (Homo sapiens, UniProt P00533) | > 150 nM

Report its IC50 with Epidermal growth factor receptor (Homo sapiens, UniProt P00533) as the test system: S=C(NCc1ccccc1)Nc1ccc2ncnc(Nc3ccc(Oc4ccccc4)cc3)c2c1
> 150 nM
